pIC50: −log10 of the molar value.
Reported pIC50 on UniProt:Q9UDY8 for assorted molecules, compiled from publications.
measuredMetric: pIC50

>>> recordedmeasurement("CO[C@@H](C)c1ncc(NC(=O)c2cnn(-c3ccc(C#N)n4nccc34)c2C(F)(F)F)cc1Cl (single isomer, unassigned)")
6.34
>>> recordedmeasurement("Cn1ccc(-c2ncc(NC(=O)c3cnn(-c4cccc5nnsc45)c3C(F)(F)F)cc2Cl)n1")
7.12
>>> recordedmeasurement("O=C(Nc1cnc(-n2nccn2)c(Cl)c1)c1cnn(-c2cnc(F)c3ccccc23)c1C(F)(F)F")
6.78

(1) Cc1cc(-n2nccn2)c(C#N)cc1NC(=O)c1cnn(-c2cnc(N)c3ccccc23)c1C(F)(F)F
(2) CNc1ncc(NC(=O)Nc2cnc(-n3nccn3)c(Cl)c2)c([C@H](C)OC)c1Br (single isomer, unassigned)
Request: When 1 and 2 are compared, which has the higher number for pIC50? Selection: enter the item's label.
Result: 1

(a) N#Cc1cc(F)ccc1-n1ncc(C(=O)Nc2cnc(-n3nccn3)c(Cl)c2)c1C(F)(F)F
(b) O=C(Nc1cnc(-n2cccn2)c(Cl)c1)c1cnn(-c2cncc3ccccc23)c1C(F)(F)F
Request: // task: argmin of pIC50 over [ a , b ] Selection: enter the item's label.
Result: a
(a: 6.12, b: 7.25)

(P) O=C(Nc1cnc(-n2nccn2)c(Cl)c1)c1cnn(-c2cccc3ncc(F)cc23)c1C(F)(F)F
(Q) N#Cc1ccc(-n2ncc(C(=O)Nc3cnc(-n4nccn4)c(C#N)c3)c2C(F)(F)F)nc1N
Request: // task: argmin of pIC50 over [ P , Q ] Selection: enter the item's label.
Result: P
(P: 7.14, Q: 7.59)

* * *

pIC50: −log10 of the molar value.
Reported pIC50 on MALT1 (Homo sapiens) for assorted molecules, compiled from publications.

>>> recordedmeasurement("Cn1nc(-c2ccnc3c(F)cccc23)c(C(F)(F)F)c1C(=O)Nc1ccnc(C(F)(F)F)c1")
"5.60 to 6.30"
>>> recordedmeasurement("Cn1nc(-c2cncc(C#N)c2)c(C(F)(F)F)c1C(=O)Nc1ccnc(C(F)(F)F)c1")
"< 5.00"
>>> recordedmeasurement("Cn1nc(-c2cccc3c2OCCO3)c(C(F)(F)F)c1C(=O)Nc1ccnc(C(F)(F)F)c1")
"5.60 to 6.30"
>>> recordedmeasurement("CC(O)c1c(Nc2ccc([C@H](N(C)C(=O)C3CCS(=O)(=O)CC3)C(F)(F)F)cc2)cnn1-c1cccnc1 (some centres unmarked)")
"> 7.00"
>>> recordedmeasurement("Cn1nc(-c2cnc3cccnn23)c(C(F)(F)F)c1C(=O)Nc1ccnc(C(F)(F)F)c1")
"< 5.00"
>>> recordedmeasurement("CN(C(=O)[C@H]1C[C@H](C(=O)O)C1)[C@@H](c1ccc(Nc2cnn(-c3ccccn3)c2C(F)(F)F)cc1)C(F)(F)F")
"> 7.00"

Request: Hello, please tell me recorded pIC50 for this one: O=C(Nc1ccnc(C(F)(F)F)c1)c1cnn(-c2cccn3nccc23)c1C(F)(F)F
Result: 6.97

Request: Hello, please tell me recorded pIC50 for this one: CN(C(=O)[C@H]1C[C@@H](C(=O)O)C1)[C@@H](c1ccc(Nc2cnn(-c3ccccc3)c2C(F)(F)F)cc1)C(F)(F)F
Result: > 7.00

* * *

pIC50: −log10 of the molar value.
Reported pIC50 on MALT1 (Homo sapiens, UniProt Q9UDY8) for assorted molecules, compiled from publications.
Sequence (Q9UDY8 whole entry): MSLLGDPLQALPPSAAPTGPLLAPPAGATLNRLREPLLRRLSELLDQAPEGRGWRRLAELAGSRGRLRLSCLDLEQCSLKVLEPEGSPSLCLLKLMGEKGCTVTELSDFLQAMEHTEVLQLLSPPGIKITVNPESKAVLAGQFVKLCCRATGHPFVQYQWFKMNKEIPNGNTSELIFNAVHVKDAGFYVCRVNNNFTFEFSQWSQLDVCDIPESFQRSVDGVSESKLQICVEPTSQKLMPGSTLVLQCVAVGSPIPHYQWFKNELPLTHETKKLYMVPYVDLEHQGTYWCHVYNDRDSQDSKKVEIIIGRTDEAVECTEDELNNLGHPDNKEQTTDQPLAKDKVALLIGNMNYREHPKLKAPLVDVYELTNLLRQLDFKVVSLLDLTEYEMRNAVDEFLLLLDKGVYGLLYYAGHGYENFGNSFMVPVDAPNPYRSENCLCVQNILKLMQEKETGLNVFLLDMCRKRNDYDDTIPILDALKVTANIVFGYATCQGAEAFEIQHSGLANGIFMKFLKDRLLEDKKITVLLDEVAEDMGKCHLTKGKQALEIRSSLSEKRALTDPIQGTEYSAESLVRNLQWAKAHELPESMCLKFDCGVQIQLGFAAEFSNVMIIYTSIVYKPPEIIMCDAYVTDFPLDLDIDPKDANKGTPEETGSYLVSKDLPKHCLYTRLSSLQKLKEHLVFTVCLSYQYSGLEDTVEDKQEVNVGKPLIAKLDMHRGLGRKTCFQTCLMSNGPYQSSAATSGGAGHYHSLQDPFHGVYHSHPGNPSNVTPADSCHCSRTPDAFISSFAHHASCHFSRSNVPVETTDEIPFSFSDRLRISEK

>>> recordedmeasurement("COc1c(-c2ccccc2)nsc1C(=O)Nc1cnc(-n2nccn2)c(Cl)c1")
"≥ 6.40"

Request: Return reported pIC50 for target or system MALT1 (Homo sapiens, UniProt Q9UDY8), item O=C(Nc1ccc(C(=O)N2CC(O)C2)c(Cl)c1)c1snc(-c2cccc3ncccc23)c1C1CC1 .
Result: ≥ 6.40

Request: Return reported pIC50 for target or system MALT1 (Homo sapiens, UniProt Q9UDY8), item Cn1nc(-c2ccc(F)cc2Cl)c(C(F)(F)F)c1C(=O)Nc1ccnc(C(F)(F)F)c1 .
Result: > 6.30

Request: Return reported pIC50 for target or system MALT1 (Homo sapiens, UniProt Q9UDY8), item O=C(Nc1cncc(C(F)(F)F)c1)c1cnn(-c2cccc3c(=O)[nH]ccc23)c1C(F)(F)F .
Result: 6.96
